species: Rattus norvegicus; experiment: DrugMatrix - Regimen: Daily Repeat; assay type: toxicity, organism-based, Sprague-Dawley; parameters: regimen Daily Repeat, gender Male, age 6-8 weeks; details: in vivo, iv, 0 mg/kg, 72 h, tissue Blood, dose level Control, time 3 day, vehicle 100 % SALINE
OBSERVED PROPERTY: BASOPHIL

Memo: CC(=O)N[C@@H]1[C@H](Oc2c3cc4cc2Oc2ccc(cc2Cl)[C@@H](O[C@@H]2O[C@@H](CO)[C@@H](O)[C@H](O)[C@@H]2NC(C)=O)[C@@H]2NC(=O)[C@H](NC(=O)[C@@H]4NC(=O)[C@H]4NC(=O)[C@@H](Cc5ccc(c(Cl)c5)O3)NC(=O)[C@H](N)c3ccc(O)c(c3)Oc3cc(O)cc4c3)c3ccc(O)c(c3)-c3c(O[C@H]4O[C@H](CO)[C@@H](O)[C@@H](O)[C@@H]4O)cc(O)cc3[C@@H](C(=O)O)NC2=O)O[C@@H](CO)[C@@H](O)[C@@H]1O , reported BASOPHIL: 0%
